# tested.system: human IL-6 (human, UniProt P05231 30-212)
# Sequence (P05231 30-212 limits assumed): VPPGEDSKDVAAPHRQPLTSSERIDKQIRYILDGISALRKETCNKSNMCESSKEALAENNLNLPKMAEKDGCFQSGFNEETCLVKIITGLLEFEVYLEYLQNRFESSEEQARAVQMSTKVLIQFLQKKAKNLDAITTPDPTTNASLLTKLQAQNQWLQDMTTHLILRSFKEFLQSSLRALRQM
# experiment.summary: SPR Biacore, supernatant, Protein A capture, 37 C
Classify as follows. Reported koff greater than or equal to 0.0009 s⁻¹: 1. Reported koff below: 0.

{"columns": ["binder", "assigned.class"],
 "data": [
  ["Anti-IL-6 antibody, heavy chain S35H, G66D, Q99Y / light chain M32L, M50D, N52S, M88Q (antibody, IgG1, V domains shown, IgG1; variable domains only; VL is variant III) VH: EVQLVESGGGLVQPGGSLRLSCAASGFTFSPFAMHWVRQAPGKGLEWVAKISPGGSWTYYSDTVTDRFTFSLDTSKSTAYLQMNSLRAEDTAVYYCARYLWGYYALDIWGQGTLVTVSS VL: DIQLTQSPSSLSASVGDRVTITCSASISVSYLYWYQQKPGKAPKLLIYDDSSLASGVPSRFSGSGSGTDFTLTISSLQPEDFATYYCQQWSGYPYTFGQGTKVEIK", 1]
]}

Exam item: Quick check, koff >= 0.0009 s⁻¹? Anti-IL-6 antibody, heavy chain S35H, G66D, Q99S / light chain WT (antibody, IgG1, V domains shown, IgG1; variable domains only) VH: EVQLVESGGGLVQPGGSLRLSCAASGFTFSPFAMHWVRQAPGKGLEWVAKISPGGSWTYYSDTVTDRFTFSLDTSKSTAYLQMNSLRAEDTAVYYCARSLWGYYALDIWGQGTLVTVSS VL: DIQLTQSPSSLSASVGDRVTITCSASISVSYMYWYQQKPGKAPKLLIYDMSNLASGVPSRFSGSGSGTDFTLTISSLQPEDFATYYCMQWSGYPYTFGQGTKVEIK
Marked response: 1

Exam item: Say whether Anti-IL-6 antibody, heavy chain S35H, G66D, L100V / light chain WT (antibody, IgG1, V domains shown, IgG1; variable domains only) VH: EVQLVESGGGLVQPGGSLRLSCAASGFTFSPFAMHWVRQAPGKGLEWVAKISPGGSWTYYSDTVTDRFTFSLDTSKSTAYLQMNSLRAEDTAVYYCARQVWGYYALDIWGQGTLVTVSS VL: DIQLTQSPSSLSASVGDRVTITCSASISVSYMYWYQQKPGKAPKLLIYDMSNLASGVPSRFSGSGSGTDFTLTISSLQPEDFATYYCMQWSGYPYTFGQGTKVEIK shows koff of 0.0009 s⁻¹ or more.
Marked response: 0

Exam item: Is koff for Anti-IL-6 antibody, heavy chain S35H, G66D, Q99Y / light chain WT (antibody, IgG1, V domains shown, IgG1; variable domains only) VH: EVQLVESGGGLVQPGGSLRLSCAASGFTFSPFAMHWVRQAPGKGLEWVAKISPGGSWTYYSDTVTDRFTFSLDTSKSTAYLQMNSLRAEDTAVYYCARYLWGYYALDIWGQGTLVTVSS VL: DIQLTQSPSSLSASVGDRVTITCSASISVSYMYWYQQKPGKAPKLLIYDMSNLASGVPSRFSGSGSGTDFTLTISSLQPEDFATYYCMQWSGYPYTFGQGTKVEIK at or above 0.0009 s⁻¹?
Marked response: 1
